Data provenance: the supplement of paper PMC3334620

Target: Yap3 (UniProt P38749)
Sequence: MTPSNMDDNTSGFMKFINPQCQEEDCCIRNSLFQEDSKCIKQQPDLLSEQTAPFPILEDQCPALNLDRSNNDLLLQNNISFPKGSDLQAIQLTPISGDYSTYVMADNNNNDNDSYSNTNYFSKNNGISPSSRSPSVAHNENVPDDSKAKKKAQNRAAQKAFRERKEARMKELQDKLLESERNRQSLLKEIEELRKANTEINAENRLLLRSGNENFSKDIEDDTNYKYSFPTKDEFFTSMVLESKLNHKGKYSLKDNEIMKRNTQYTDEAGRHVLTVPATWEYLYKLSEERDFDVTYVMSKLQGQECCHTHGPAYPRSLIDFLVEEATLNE
Test: PBM E-score (8-mer binding enrichment) (E-score (-0.5 to 0.5)); higher = stronger / more preferred TF binding
Settings: protein concentration: 100 nM; construct: GST-full length
Over roughly 33,000 sequences, “E-score (-0.5 to 0.5)” has its median near -0.0034; the highest 2% begin near 0.25. Many of the other results were omitted from the sample, so the highest values are more common in it than they were.
Measured PBM E-score by item
value type: PBM E-score

1. CTACGTAA ... 0.135
2. AAAATTTT ... 0.246
3. ATTCGTTA ... 0.25
4. CAAGTTCA ... -0.00101
5. AAAATTAT ... 0.257
6. AAAATTAC ... 0.273
7. AATATGAG ... 0.0655
8. GAAATTAA ... 0.342
9. ATTCGTTC ... 0.27
10. GTACGTAA ... 0.312
11. TATATGAA ... 0.203
12. AATATGAA ... 0.279
13. AAAATTAA ... 0.138
14. AATATGAC ... 0.223
